assay type: in vivo, human; conditions: human, plasma, oral, 75 mg, Vz/F, geometric mean, Fasted; PP population
Quantity: Vd/F (L)

INSERT INTO results (compound, result_number) VALUES
  ('Cn1cnc2c(F)c(Nc3ccc(Br)cc3Cl)c(C(=O)NOCCO)cc21', 175);

###

format: in vivo, human; conditions: human, plasma, oral, 75 mg, Vz/F, geometric mean, Fed; PP population
Quantity: Vd/F

INSERT INTO results (compound, quantity, result) VALUES
  ('Cn1cnc2c(F)c(Nc3ccc(Br)cc3Cl)c(C(=O)NOCCO)cc21', 'Vd/F', '199 L');

###

format: in vivo, human; settings: fasted state
Quantity: ratio of N-desmethyl-selumetinib to selumetinib (metabolite to parent)

INSERT INTO measurements (compound, result_number) VALUES
  ('O=C(NOCCO)c1cc2nc[nH]c2c(F)c1Nc1ccc(Br)cc1Cl', 0.07);
